These data points were gathered from patent US20240270821A1.

For each entry below, report its Relative cAMP EC50 value.
assayed_system: human glucagon receptor (human) (UniProt P47871)
Sequence (P47871 26-477): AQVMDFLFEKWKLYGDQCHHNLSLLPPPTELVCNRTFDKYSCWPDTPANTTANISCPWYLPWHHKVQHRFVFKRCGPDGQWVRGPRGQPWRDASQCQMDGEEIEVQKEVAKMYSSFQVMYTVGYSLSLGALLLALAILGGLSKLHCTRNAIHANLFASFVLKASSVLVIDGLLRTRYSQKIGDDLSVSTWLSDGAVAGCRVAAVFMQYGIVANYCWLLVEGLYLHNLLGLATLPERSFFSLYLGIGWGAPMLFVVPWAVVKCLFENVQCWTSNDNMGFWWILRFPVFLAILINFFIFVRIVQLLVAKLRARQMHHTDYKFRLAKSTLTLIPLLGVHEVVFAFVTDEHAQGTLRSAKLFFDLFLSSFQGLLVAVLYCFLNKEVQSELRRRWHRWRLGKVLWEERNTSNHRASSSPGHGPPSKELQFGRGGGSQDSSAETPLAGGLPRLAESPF
protocol_details: cell-based or functional assay
Output spec: scalar in nM, unitless text.

Problem: Consider the binder YXQGTXTSDXSILLDKKAQXAFIEYLXEGGPSSGAPPPSGTGE (synthetic construct; SITE 2: note = 2-Aminoisobutyric Acid; SITE 6: note = alpha-methyl-2-fluoro-L-phenylalanine; SITE 10: note = 3-(4-Pyridyl)-L-alanine; SITE 17: note = Lysine is chemically modified through conjugation of the epsilon-amino group of the Lysine side chain with (2-[2-(2-Amino-ethoxy))) [Example 663 (SEQ ID NO: 669)] . State its measured Relative cAMP EC50.
Result: 1.95

Problem: Consider the binder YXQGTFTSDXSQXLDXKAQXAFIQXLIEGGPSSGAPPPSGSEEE (non-natural residues, acylated Lys (γGlu-C18 diacid), C-terminal amide; synthetic construct; SITE 2: note = 2-Aminoisobutyric Acid; SITE 10: note = 3-(4-Pyridyl)-L-alanine; SITE 13: note = alpha-methyl-leucine; SITE 16: note = L-ornithine; SITE 17: note = Lysine is chemically modified through conjugation of the epsilon-amino group of the Lysine side chain with D-Glutami) [Example 1073] . State its measured Relative cAMP EC50.
Result: 12.3

Problem: Consider the binder YXQGTFTSDFSXXLDKKAQXAFIEYLLEAGPSSGAPPPSGE (synthetic construct; SITE 2: note = 2-Aminoisobutyric Acid; SITE 12: note = L-ornithine; SITE 13: note = alpha-methyl-leucine; SITE 17: note = Lysine is chemically modified through conjugation of the epsilon-amino group of the Lysine side chain with (2-[2-(2-Amino-ethoxy)-ethoxy]-acetyl)-(gamma-Glu)) [Example 129] . State its measured Relative cAMP EC50.
Result: 2.01
